All values here come from PubChem BioAssay AID1159580.

Experiment: chemical genetic growth profiling, strain panel (AID 1159580);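 further: tested at 20 µM; growth read once vehicle control cultures reached saturation at 30 °C; 1 = growth at the plate median or of vehicle wells; lower values mean less growth of the strain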
Conditions: S. cerevisiae deletion strains, growth OD, locus YDR318W, strain mcm21, active compounds read low
The whole screen tested about 5,500 compounds, of which about 2,000 (36%) were called active. Another 18% or so got no clear call; they are omitted. The list shows a part of the results.
This section presents molecules with their documented normalized growth values.
Form rule: numeric answer, no unit written next to it.

Consider the worked cases shown below.
C=CC(C1=CC(=O)C(OC)=CC1=O)c1ccc(O)cc1 (stereo unspecified) : 0.953
CC1(C)C(O)CC(O)C2(C)C1CC(O)C1(C)C2CCC2(C)C(c3ccoc3)CC3OC321 (stereo unspecified) : 1
CN/C(=C\[N+](=O)[O-])NCCSCc1ccc(CN(C)C)o1 : 0.991
C[n+]1cccc(C(=O)[O-])c1 : 0.994
CC1(C)C(O)CC(O)C2(C)C1CC(=O)C1(C)C2CCC2(C)C(C(=O)O)OC(=O)C3OC321 (stereo unspecified) : 1
CC(=O)O[C@H]1C[C@@H](OC(C)=O)C(C)(C)C2C[C@@H](OC(C)=O)[C@@]3(C)C4=CC(=O)O[C@@H](c5ccoc5)[C@]4(C)CCC3[C@]21C (stereo partly specified) : 1
Oc1c(Cl)cc(Cl)c2cccnc12 : 0.0673
CC/C(=C(\c1ccccc1)c1ccc(OCCN(C)C)cc1)c1ccccc1 : 0.0655
CO[C@H]1/C=C/O[C@@]2(C)Oc3c(C)c(O)c4c(O)c(c(/C=N/N5CCN(C)CC5)c(O)c4c3C2=O)NC(=O)/C(C)=C\C=C\C(C)[C@H](O)[C@@H](C)[C@@H](O)[C@@H](C)[C@@H](OC(C)=O)[C@@H]1C (stereo partly specified) : 1.01
C1CCN2C[C@@H]3C[C@H](CN4CCCC[C@@H]34)[C@H]2C1 : 1.01

We now examine a further molecule.
Please report the recorded normalized growth for O=C(O)CCC(=O)C(=O)O .
1.01
